STUDY_TARGET: Tyrosine-protein kinase Lck (Homo sapiens, UniProt P06239)
Sequence (P06239 whole entry): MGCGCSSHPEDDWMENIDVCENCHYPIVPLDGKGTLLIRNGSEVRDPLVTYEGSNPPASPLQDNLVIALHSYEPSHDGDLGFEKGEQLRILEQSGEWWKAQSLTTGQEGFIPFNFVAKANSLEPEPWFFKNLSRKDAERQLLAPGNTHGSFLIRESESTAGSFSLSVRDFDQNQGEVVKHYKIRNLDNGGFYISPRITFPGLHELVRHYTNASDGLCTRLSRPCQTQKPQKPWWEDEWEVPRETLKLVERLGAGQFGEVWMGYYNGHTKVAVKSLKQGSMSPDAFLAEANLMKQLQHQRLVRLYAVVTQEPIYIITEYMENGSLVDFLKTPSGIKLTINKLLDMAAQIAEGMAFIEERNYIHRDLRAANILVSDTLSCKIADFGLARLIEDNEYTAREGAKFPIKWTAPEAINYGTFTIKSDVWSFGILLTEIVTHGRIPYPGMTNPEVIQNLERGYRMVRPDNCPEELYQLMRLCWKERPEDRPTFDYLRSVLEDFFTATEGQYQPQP
TEST_PROTOCOL: In vitro inhibition of phosphorylation of an exogenous substrate by human p56 Lck tyrosine kinase expressed as a His-tagged protein in insect cells using a baculovirus expression system
Give measured pIC50 for each item. Keep answers brief.
Answers are plain numbers, as −log10 of the molar value.

Solved cases below.
- MOLECULE: "Cc1cccc(Cl)c1NC(=O)c1ccc2nc(NC(=O)NC(C)(C)C)sc2c1"
  VALUE_REPORTED: 8.40
- MOLECULE: "Cc1cccc(Cl)c1NC(=O)c1ccc2nc(NC(=O)NC3CC(C)(C)NC(C)(C)C3)sc2c1"
  VALUE_REPORTED: 8.40
- MOLECULE: "Cc1cccc(Cl)c1NC(=O)c1ccc2nc(NC(=O)NC3CC3)sc2c1"
  VALUE_REPORTED: 7.05
- MOLECULE: "Cc1cccc(Cl)c1NC(=O)c1ccc2nc(NC(=O)C3CCC3)sc2c1"
  VALUE_REPORTED: 6.18
- MOLECULE: "Cc1cc(C)c(NC(=O)c2sc(N)nc2C)c(C)c1"
  VALUE_REPORTED: 5.49

Hey, can you go through the list below and give me pIC50 for every item?
1. Cc1ccccc1CC(=O)Nc1nc2ccc(C(=O)Nc3c(C)cccc3Cl)cc2s1
2. Cc1cccc(Br)c1NC(=O)c1ccc2nc(NC(=O)OC(C)(C)C)sc2c1

6.25
5.37
